# RUN DESCRIPTION: qHTS assay to test for compound auto fluorescence at 590 nm (red) in HEK293 cells (AID 720679)
# CONDITION DESCRIPTION: red autofluorescence 540/590 nm; series mostly up to 91.3 µM
The source made the active and inactive calls. The call rests on the fitted dose curve; in most records, active means well fitted curve in the direction sought with a large enough effect in the repeat runs; inconclusive means weak or mixed curves; inactive means flat fitted curve, though single readings scatter.
MEASURED ENDPOINT: fluorescence, % of fluorescent control

> print(dat)
                                    molecule  measured.result
 1  OCC(O)[C@@H](O)[C@H](O)[C@H](O)CO[C@H]1O[C@H](CO)[C@@H](O)[C@H](O)[C@H]1O (some centres undefined)         inactive
 2         COC(=O)c1ccc(C(=O)OC)c(C(=O)OC)c1         inactive
 3                         CC(C)COC(=O)C(C)C         inactive
 4                               Cc1ccccc1Br         inactive
 5           C(=C(c1ccccc1)c1ccccc1)c1ccccc1         inactive
 6                     NCCNC(=O)c1ccc(Cl)cn1         inactive
 7                            CCCCCCC(=O)OCC         inactive
 8  CC12CCC(CC1=O)C2(C)C (centres undefined)         inactive
 9                                    CCCC=O         inactive
10      CCc1cc(S(=O)(=O)O)c2cc(C(C)C)cccc1-2         inactive
11   c1cc(CN2CCCCC2)cc(OCCCNc2nc3ccccc3s2)c1         inactive
12             CC(=O)N[C@@H](CCC(N)=O)C(=O)O         inactive
13  Nc1nc(F)nc2c1ncn2[C@@H]1O[C@H](CO)[C@@H](O)[C@@H]1O         inactive
14     NC(=O)CCCCC1CCSS1 (centres undefined)         inactive

* * *

# Tested on: thyroid hormone receptor (rat, GH3 cells)
# RUN DESCRIPTION: qHTS assay to identify small molecule agonists of the thyroid receptor (TR) signaling pathway (AID 743066)
# CONDITION DESCRIPTION: GH3.TRE-Luc cells, TR agonist luciferase, 24 h; series mostly up to 83.9 µM
Records with an inconclusive call do not appear. The source made the active and inactive calls. Calls come from the whole dose curve.
MEASURED ENDPOINT: activation

> print(dat)
                                    compound  measured.result
 1                            CCCCCCC(=O)OCC         inactive
 2                            CC1=CC(=O)CCC1         inactive
 3  CC12CCC(CC1=O)C2(C)C (configuration not stated)         inactive
 4  NC(=O)CCCCC1CCSS1 (configuration not stated)         inactive
 5                       O=S(=O)(O)c1ccccc1O         inactive
 6                       CN(C)C(=O)Nc1ccccc1         inactive
 7                              CCCCCCCCCCCl         inactive
 8                    COC(=O)CCCCCCCCC(=O)OC         inactive
 9  Nc1ccn(C2CO[C@H](CO)O2)c(=O)n1 (some centres not stated)         inactive
10      COc1ccc(N=[N+]([O-])c2ccc(OC)cc2)cc1         inactive
11  C=CCSCC1Nc2cc(Cl)c(S(N)(=O)=O)cc2S(=O)(=O)N1 (configuration not stated)         inactive
12               Nc1ccc2cc(S(=O)(=O)O)ccc2c1         inactive
13                   CCCCCC[C@@H](CCC)C(=O)O         inactive
14  CCOC(=O)Nc1ccc2c(c1)N(C(=O)CCN1CCOCC1)c1ccccc1S2         inactive
15            CCOC(=O)Cn1c(=O)sc2cccc(Cl)c21         inactive
16   NC(CS)C(=O)O (configuration not stated)         inactive
17                           OC/C=C/c1ccccc1         inactive
18  C[C@H]1O[C@@H](n2cc(F)c(=O)[nH]c2=O)[C@H](O)[C@@H]1O         inactive
19                                CC/C=C\C#N         inactive
20  Cc1onc(-c2ccccc2)c1-c1ccc(S(N)(=O)=O)cc1         inactive
21                         CC(C)(C)N(CCO)CCO         inactive
22                             CCCCCCCCCCCCI         inactive
23                          COc1cc(C)cc(O)c1         inactive
24               C=CCOc1nc(OCC=C)nc(OCC=C)n1         inactive
25  CCCC(C)C(=O)O (configuration not stated)         inactive
26                          C=CC(=O)N1CCOCC1         inactive
27                        CNc1ncnc2nc[nH]c12         inactive
28                              CCCc1ccccc1O         inactive
29  CCCCOCC(C)OCC(C)O (configuration not stated)         inactive
30  CCC(C(=O)NC(N)=O)c1ccccc1 (configuration not stated)         inactive
31  CCCCCOC(=O)Nc1nc(=O)n([C@@H]2O[C@H](C)[C@@H](O)[C@H]2O)cc1F         inactive
32                     NCCNC(=O)c1ccc(Cl)cn1         inactive

* * *

# RUN DESCRIPTION: qHTS assay for small molecule disruptors of the mitochondrial membrane potential (AID 720635)
# CONDITION DESCRIPTION: HepG2 mitochondrial membrane potential, Mito-MPS dye ratio; series mostly up to 83.2 µM
Records with an inconclusive call do not appear. The source made the active and inactive calls. Calls follow the shape of the dose curve; as a rule, active = well fitted inhibition curve with a large enough effect in the signal ratio in the repeat runs; inconclusive = weak or mixed curves, or effect the other way; inactive = flat fitted curve, though single readings scatter; the % refers to the signal ratio.
Outcome codes: active, inactive

> print(dat)
                               line.notation  class.label
 1                     CC(C)c1cccc(C(C)C)c1N     inactive
 2                       COc1ccc(NC(C)=O)cc1     inactive
 3                        CNc1ncnc2nc[nH]c12       active
 4                            CCCc1ccc(N)cc1     inactive
 5                           Cc1ccccc1C(=O)O     inactive
 6                           O=C(O)c1ccccc1S     inactive
 7                  N#CCc1ccccc1[N+](=O)[O-]     inactive
 8  CCOC(=O)[C@H](CCc1ccccc1)N[C@@H](C)C(=O)N1CCC[C@H]1C(=O)O     inactive
 9                              CC(C)CCCCCCN     inactive
10  Oc1ccc2c(c1)OC[C@@H](N1CCC(O)(c3ccc(F)cc3)CC1)[C@H]2O       active
11  Nc1cc(C(Cl)=C(Cl)Cl)c(S(N)(=O)=O)cc1S(N)(=O)=O     inactive
12                  CCC(=O)/C=C/c1ccc(OC)cc1     inactive

* * *

# RUN DESCRIPTION: qHTS assay to identify small molecule antagonists of the glucocorticoid receptor (GR) signaling pathway - cell viability counter screen (AID 720693); further: nearly all actives have a fitted effect of over 55% in size
# CONDITION DESCRIPTION: GR-bla HeLa viability, CellTiter-Glo luminescence, 18 h, with 5 nM dexamethasone present; series mostly up to 58.5 µM
Results filed as inconclusive are left out. Active and inactive are the calls of the source. Calls follow the shape of the dose curve; as a rule, active = well fitted cell-killing curve with a large enough effect in the repeat runs; inconclusive = weak or mixed curves, or effect the other way; inactive = no such curve, though single readings can be large or run the other way.
MEASURED ENDPOINT: viability change, negative = cytotoxic

> print(dat)
                                    molecule                       measured.endpoint  measured.result
 1  C=CCSCC1Nc2cc(Cl)c(S(N)(=O)=O)cc2S(=O)(=O)N1 (stereo not drawn)  viability change, negative = cytotoxic         inactive
 2      CCCCC1CCCCC(=O)O1 (stereo not drawn)  viability change, negative = cytotoxic         inactive
 3          O=S(=O)(c1cccc2cnccc12)N1CCCNCC1  viability change, negative = cytotoxic         inactive
 4   CC(C)(C)OC(=O)N1C[C@@H](F)C[C@H]1C(=O)O  viability change, negative = cytotoxic         inactive
 5                                    CCCC=O  viability change, negative = cytotoxic         inactive
 6                   NC(=O)Nc1nc2ccccc2[nH]1  viability change, negative = cytotoxic         inactive
 7  C[C@H](O)C(=O)Nc1c(I)c(C(=O)NC(CO)CO)c(I)c(C(=O)NC(CO)CO)c1I  viability change, negative = cytotoxic         inactive
 8          O=C(O)/C=C/c1ccc(/C=C/C(=O)O)cc1  viability change, negative = cytotoxic         inactive
 9                        CNc1ncnc2nc[nH]c12  viability change, negative = cytotoxic         inactive
10  Cc1cc(C)cc(OCC2CNC(=O)O2)c1 (stereo not drawn)  viability change, negative = cytotoxic         inactive
11       CO[Si](CCCNCCC[Si](OC)(OC)OC)(OC)OC  viability change, negative = cytotoxic         inactive
12  CC(=O)NC(Cc1ccccc1)C(=O)O (stereo not drawn)  viability change, negative = cytotoxic         inactive
13    CC1=CCC2C(C1)C2(C)C (stereo not drawn)  viability change, negative = cytotoxic         inactive
